For each entry below, report its Luminescence Raw2 value.
- Test system: l(2)mbn cells
- measurement notes: cytotoxicity in Drosophila l(2)mbn cells
- Assay type: cell-based
- study conditions: 20 µM, replicate 2
// keep it numeric: no unit symbol after the value

Lab note: C=C1CCC2C(C)(CC(=O)C=C(C)C)C(O)CCC2(C)C1Cc1c(OC)oc(C)c(C)c1=O (stereo not drawn) gave Luminescence Raw2 of 2495041

Lab note: C=C1CC[C@H]2[C@]3(C)C[C@H](C=C(C)C)O[C@H]3CC[C@]2(C)[C@@H]1Cc1c(OC)oc(CO)c(C)c1=O gave Luminescence Raw2 of 213117

Lab note: C=C1CCC2C(C)(CCC=C(C)C)C(O)CCC2(C)C1Cc1c(OC)oc(C)c(C(=O)OC)c1=O (stereo not drawn) gave Luminescence Raw2 of 176340

Lab note: C=C1CCC2C(C)(CCC=C(C)C)C(O)CCC2(C)C1Cc1c(OC)oc(CO)c(C(=O)OC)c1=O (stereo not drawn) gave Luminescence Raw2 of 241241

Lab note: C=C1CCC2C(C)(CCC=C(C)C)C(O)CCC2(C)C1Cc1c(O)c(C)c(C)oc1=O (stereo not drawn) gave Luminescence Raw2 of 188801

Lab note: C=C1CC[C@H]2[C@]3(C)C[C@@H](C=C(C)C)O[C@H]3CC[C@]2(C)[C@@H]1Cc1c(OC)oc(CO)c(C)c1=O gave Luminescence Raw2 of 243967

* * *

- tested system: Aβ42 (Homo sapiens, UniProt P05067)
- Sequence (P05067 672-713): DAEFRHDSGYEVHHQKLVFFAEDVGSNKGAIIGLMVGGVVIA
- measurement notes: Th-T (thioflavin-T) assay of Aβ42 aggregation
- Format: biochemical
- study conditions: column suffix _20; reading M1
readout type: Th-T assay signal, mean of three wells (Fig. 7a)

Lab note: C=C1CCC2C(C)(CCC=C(C)C)C(O)CCC2(C)C1Cc1c(OC)oc(CO)c(C(=O)OC)c1=O (centres unmarked) gave Th-T assay signal, mean of three wells (Fig. 7a) of 0.2486

Lab note: C=C1CCC2C(C)(CCC=C(C)C)C(O)CCC2(C)C1Cc1c(OC)oc(C)c(C(=O)OC)c1=O (centres unmarked) gave Th-T assay signal, mean of three wells (Fig. 7a) of 0.305

Lab note: C=C1CCC2C(C)(CCC=C(C)C)C(O)CCC2(C)C1Cc1c(OC)oc(CO)c(C)c1=O (centres unmarked) gave Th-T assay signal, mean of three wells (Fig. 7a) of 0.2949

Lab note: C=C1CC[C@@H]2[C@](C)(CC[C@H]3O[C@H](C=C(C)C)C[C@@]23C)[C@@H]1Cc1c(OC)oc(CO)c(C)c1=O gave Th-T assay signal, mean of three wells (Fig. 7a) of 0.2139

Lab note: C=C1CC[C@@H]2[C@](C)(CC[C@H]3O[C@H](C=C(C)C)C[C@@]23C)[C@@H]1Cc1c(OC)oc(CO)c(C(=O)OC)c1=O gave Th-T assay signal, mean of three wells (Fig. 7a) of 0.2262

* * *

- tested system: Aβ42 (Homo sapiens, UniProt P05067)
- measurement notes: Th-T (thioflavin-T) assay of Aβ42 aggregation
- Assay type: biochemical
- study conditions: reading M123; compound at 50 (head suffix _50)
Binary label based on Th-T fluorescence, mean of three wells (Fig. 7a) with cut-off 1: below gives Condition met, not below gives Condition not met.

Task: Lab log: compare recorded Th-T fluorescence, mean of three wells (Fig. 7a) with 1; is it strictly lower for C=C1CCC2C(C)(CCC=C(C)C)C(O)CCC2(C)C1Cc1c(OC)oc(C)c(C(=O)OC)c1=O (centres unmarked) ?
Output: Condition met

Task: Lab log: compare recorded Th-T fluorescence, mean of three wells (Fig. 7a) with 1; is it strictly lower for C=C1CC[C@@H]2[C@](C)(CC[C@H]3O[C@H](C=C(C)C)C[C@@]23C)[C@@H]1Cc1c(OC)oc(CO)c(C)c1=O ?
Output: Condition not met

Task: Lab log: compare recorded Th-T fluorescence, mean of three wells (Fig. 7a) with 1; is it strictly lower for C=C1CCC2C(C)(CCC=C(C)C)C(O)CCC2(C)C1Cc1c(OC)oc(CO)c(C(=O)OC)c1=O (centres unmarked) ?
Output: Condition met

Task: Lab log: compare recorded Th-T fluorescence, mean of three wells (Fig. 7a) with 1; is it strictly lower for C=C1CCC2C(C)(CCC=C(C)C)C(O)CCC2(C)C1Cc1c(OC)oc(CO)c(C)c1=O (centres unmarked) ?
Output: Condition not met

Task: Lab log: compare recorded Th-T fluorescence, mean of three wells (Fig. 7a) with 1; is it strictly lower for C=C1CC[C@@H]2[C@](C)(CC[C@H]3O[C@H](C=C(C)C)C[C@@]23C)[C@@H]1Cc1c(OC)oc(CO)c(C(=O)OC)c1=O ?
Output: Condition met
